The following molecules are shown together with reported normalized growth values.
- assay info: chemical genetic growth profiling, strain panel (AID 1159580);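 further: tested at 20 µM; growth read once vehicle control cultures reached saturation at 30 °C; 1 = growth at the plate median or of vehicle wells; lower values mean less growth of the strain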
- conditions used: S. cerevisiae deletion strains, growth OD, locus YML120C, strain ndi1, stronger effect = lower value
Among all 5,500 compounds or so, about 2,000 (36%) were called active. Another 18% or so got no clear call; they are omitted. Some of the results follow.
Just the number, please, no unit attached.

Guide cases for normalized growth, answers given:
I'd like to know its normalized growth. The molecule in question is CC(C)=CC1C(C(=O)OCc2cccc(Oc3ccccc3)c2)C1(C)C (configuration not stated)
1.01

Could you share which normalized growth value was measured for COc1ccc(CCC(=O)c2c(O)cc(O[C@@H]3O[C@H](CO)C(O)[C@H](O)C3O[C@@H]3O[C@@H](C)[C@H](O)[C@@H](O)[C@H]3O)cc2O)cc1O (some centres not stated) ?
1.01

New cases:
Which normalized growth value is on record for CCCNC(=O)NS(=O)(=O)c1ccc(Cl)cc1 ?
1.02

For the molecule shown here, CC1[C@H](C)OC(=O)CC(O)CC(O)CC(O)CCC(O)C(O)C[C@]2(O)CC(O)C(C(=O)O)C(CC(OC3O[C@H](C)[C@@H](O)[C@H](N)[C@@H]3O)/C=C/C=C/C=C/C=C/CC/C=C/C=C/[C@H](C)[C@H]1O)O2 (some centres not stated) , give the reported normalized growth.
0.0634
